System Name: Menin (Homo sapiens, UniProt O00255)
Method: Inhibition of fluorescent labeled tracer binding to Menin (unknown origin) after 1 hr by fluorescence polarization competitive binding assay
pIC50: −log10 of the molar value.
pIC50: recorded values

Smiles Notation	pIC50
CCc1nccn1C[C@@](c1cccc(F)c1)(C1CCN(CC2CN(c3ccc(S(=O)(=O)C4CN(C(=O)/C=C/CN(C)C)C4)cc3)C2)CC1)[C@H]1CCC[C@@H]1NC(=O)OC	8.77
COC(=O)N[C@H]1CCC[C@@H]1[C@](CN1CCC1)(c1cccc(F)c1)C1CCN(CC2CN(c3ccc(S(=O)(=O)C4CN(C(=O)/C=C/CN5CCCCC5)C4)cc3)C2)CC1	8.59

====

System Name: Menin (Homo sapiens, UniProt O00255)
Sequence (O00255 whole entry): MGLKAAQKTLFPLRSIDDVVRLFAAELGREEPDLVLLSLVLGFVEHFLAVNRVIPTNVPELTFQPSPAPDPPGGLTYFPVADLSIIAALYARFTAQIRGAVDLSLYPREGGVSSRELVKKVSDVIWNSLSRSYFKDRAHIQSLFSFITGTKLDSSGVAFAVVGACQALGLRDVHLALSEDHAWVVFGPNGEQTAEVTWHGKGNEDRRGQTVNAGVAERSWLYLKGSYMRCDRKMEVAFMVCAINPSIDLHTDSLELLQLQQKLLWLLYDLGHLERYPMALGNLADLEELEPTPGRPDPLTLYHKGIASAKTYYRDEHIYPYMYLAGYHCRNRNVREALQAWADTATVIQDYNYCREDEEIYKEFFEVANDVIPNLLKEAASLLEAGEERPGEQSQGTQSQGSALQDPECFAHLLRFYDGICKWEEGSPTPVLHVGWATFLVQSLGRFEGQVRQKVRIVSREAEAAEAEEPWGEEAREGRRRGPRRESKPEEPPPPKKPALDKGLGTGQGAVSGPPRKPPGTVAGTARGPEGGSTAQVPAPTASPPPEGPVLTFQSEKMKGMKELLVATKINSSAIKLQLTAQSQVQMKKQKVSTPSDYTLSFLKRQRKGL
Method: Inhibition of menin (unknown origin) by fluorescence polarization assay
pIC50: −log10 of the molar value.

Smiles Notation	pIC50
COC(=O)N[C@H]1CCC[C@@H]1[C@](C#N)(c1cccc(F)c1)C1CCN(CC2CN(c3ccc(S(=O)(=O)C4CN(C(=O)/C=C/CN(C)C)C4)cc3)C2)CC1	8.48
